target under test: Ectonucleoside triphosphate diphosphohydrolase 1 (Bos taurus)
Sequence (O18956 whole entry): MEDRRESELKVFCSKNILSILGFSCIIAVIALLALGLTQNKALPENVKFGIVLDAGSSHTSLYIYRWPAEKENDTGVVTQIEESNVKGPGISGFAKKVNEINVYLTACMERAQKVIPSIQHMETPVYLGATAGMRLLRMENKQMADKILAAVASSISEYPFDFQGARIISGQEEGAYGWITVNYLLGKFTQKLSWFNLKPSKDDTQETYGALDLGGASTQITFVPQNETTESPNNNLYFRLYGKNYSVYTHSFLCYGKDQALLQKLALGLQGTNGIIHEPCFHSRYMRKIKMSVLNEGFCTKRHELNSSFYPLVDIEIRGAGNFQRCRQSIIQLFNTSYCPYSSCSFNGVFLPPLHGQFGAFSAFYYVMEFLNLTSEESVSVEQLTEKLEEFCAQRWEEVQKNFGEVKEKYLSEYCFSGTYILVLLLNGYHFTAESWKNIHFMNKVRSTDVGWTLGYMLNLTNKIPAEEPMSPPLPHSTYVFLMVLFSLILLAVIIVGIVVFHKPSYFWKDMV
pKi: −log10 of the molar value.

- compound: "Nc1ncnc2c1nc(SC1CCCCCC1)n2C1O[C@H](COP(=O)(O)OP(=O)(O)OP(=O)(O)O)[C@@H](O)[C@H]1O (stereo partly specified)"
  target under test: "Ectonucleoside triphosphate diphosphohydrolase 1 (Bos taurus)"
  pKi: 4.51
